Exercise: state measured Score_si1 for each of the substances provided.
- Tested on: CHIKV
- Format: cell-based, chikungunya virus

Here is how some substances turned out for Score_si1.
substance="Hs_FXC1_2 (sense CAAGTATTTGTTGGTTCATAA; chemistry not given here)" measured_attribute=Score_si1 test_value=2.83
substance="Hs_CAB39L_2 (GCCAATGTCTTTGGACTGTAA; chemistry not given here)" measured_attribute=Score_si1 test_value=2.37
substance="Hs_PTX3_2 (sense AAGAAAGAAACTCACACTTAA; chemistry not given here)" measured_attribute=Score_si1 test_value=1.48

For every listed record, write down its Score_si1.
1. Hs_FLJ00193_2 (GAGCAGCTACATGGAGATGAA; chemistry not given here)
2. Hs_NRCAM_4 (AGGGTGGTAAATATCCAGTTA; chemistry not given here)
3. Hs_MGC2803_2 (CGGGAACAAACTAGCCCTCAA; chemistry not given here)
4. Hs_EEF2_2 (TGCCGTTTCTTTCAATATTTA; chemistry not given here)
5. Hs_CLTC_11 (sense ACAGTTCTACTTAGAATTCAA; chemistry not given here)

Solution:
1. 2.41
2. 1.08
3. 2.43
4. 2.07
5. 2.42

Exercise: Need Score_si1, item s322 (GGTTGTCCTTGAGTAATAA; chemistry not given here)
Solution: 1.71

* * *

- Test system: CHIKV
- Assay type: cell-based, chikungunya virus
measured-attribute: Score_si3
Give bare numbers.

Here is how some substances turned out for Score_si3.
substance="Hs_GLTSCR2_6 (sense CCGGAGCTTCCTACAATCCAT; chemistry not given here)" target=CHIKV measured_attribute=Score_si3 test_value=1.7
substance="Hs_CLPP_3 (sense GCCCATCCACATGTACATCAA; chemistry not given here)" target=CHIKV measured_attribute=Score_si3 test_value=1.41
substance="Hs_CLCN6_2 (sense CCGGTGAATGTTATTGGAATT; chemistry not given here)" target=CHIKV measured_attribute=Score_si3 test_value=-0.01
substance="Hs_DKFZP564C186_2 (CACGGACAGTGCTGCATTCAA; chemistry not given here)" target=CHIKV measured_attribute=Score_si3 test_value=1.17
substance="s35332 (CAGGTATTCAGGTCCATGA; chemistry not given here)" target=CHIKV measured_attribute=Score_si3 test_value=0.27
substance="s20631 (sense GGACGGAAGCGAAAATCGA; chemistry not given here)" target=CHIKV measured_attribute=Score_si3 test_value=1.89
substance="s50642 (sense CCTTCATGGTGGGACTGTA; chemistry not given here)" target=CHIKV measured_attribute=Score_si3 test_value=0.69

Exercise: Need Score_si3, item Hs_IQGAP1_4 (sense TGCCCACTTAAGCATCATTAA; chemistry not given here)
Solution: 0.98

* * *

- Test system: CHIKV
- Assay type: cell-based, chikungunya virus
measured-attribute: Score_si4
One number for each entry.

Here is how some substances turned out for Score_si4.
substance="s195061 (sense CTGTATGGCTTCTATATAA; chemistry not given here)" target=CHIKV test_value=1.03
substance="Hs_CAMKK2_3 (TAGCAGCATGTCCTACGGAAA; chemistry not given here)" target=CHIKV test_value=1.01
substance="Hs_LIP8_1 (sense CTGGACTTTGCTAAAGCAGAA; chemistry not given here)" target=CHIKV test_value=0.62
substance="s27208 (sense GACACTTGTTTCTTACCTA; chemistry not given here) [reference compound]" target=CHIKV test_value=0.22
substance="Hs_ITGB4BP_2 (sense AAGCTACTGTGTCTTCAGCAA; chemistry not given here)" target=CHIKV test_value=1.08

For every listed record, write down its Score_si4.
1. s51652 (sense CCAGGCCCATTCTACAATA; chemistry not given here)
2. s15684 (sense GGAGCTGATCATCAACAAA; chemistry not given here)

Solution:
1. 0.04
2. 1.33

Exercise: Need Score_si4, item s8005 (sense CCATGACTCCTGACTACCA; chemistry not given here)
Solution: 0.75

* * *

- System: CHIKV
- Format: cell-based, chikungunya virus
Score_si1 strictly under 2 means Yes; at 2 or over means No.

Answered cases to consult:
substance="Hs_KAZALD1_2 (sense ACAGGGCTAGGCACCAATAAA; chemistry not given here)" answer_label=Yes
substance="Hs_HTATIP_8 (sense CACCACATTGCCTGTCCTCTA; chemistry not given here)" answer_label=No
substance="Hs_FBXO42_3 (CAGGCTGGGATCAAATCTCCA; chemistry not given here)" answer_label=No
substance="Hs_NCOA1_14 (CTCCTAATATTTCGACATTAA; chemistry not given here)" answer_label=No
substance="Hs_CUL4A_1 (sense ACCCATATTATTAGTGATAAA; chemistry not given here) [reference compound]" answer_label=Yes

Exercise: Confirm or reject: Score_si1 of s28640 (CACTCACACCATCCTATGA; chemistry not given here) lies strictly below 2
Solution: Yes

Exercise: Confirm or reject: Score_si1 of Hs_BRD8_4 (CCGGCTGTCTCCACTACTGAA; chemistry not given here) lies strictly below 2
Solution: No

* * *

- System: CHIKV
- Type: cell-based, chikungunya virus
Exercise: state measured Score_si4 for each of the substances provided.
Answers are plain numbers.

Here is how some substances turned out for Score_si4.
substance="Hs_PRSS15_3 (sense TAGAAGCTATTTAATGATTAA; chemistry not given here)" target=CHIKV measured_attribute=Score_si4 test_value=1.21
substance="Hs_RXRA_3 (sense TCCGTACGATTGTCTCTGAAA; chemistry not given here)" target=CHIKV measured_attribute=Score_si4 test_value=0.81
substance="Hs_LTBP3_2 (CCGCTACTGCGTGGATGTGAA; chemistry not given here)" target=CHIKV measured_attribute=Score_si4 test_value=1.32

For every listed record, write down its Score_si4.
1. Hs_IQGAP1_3 (sense AAGGCATATCAAGATCGGTTA; chemistry not given here)
2. s36692 (GGCTATTGATTGTCCACAT; chemistry not given here) [reference compound]
3. s32095 (CAGAAACGATCTACAAGAA; chemistry not given here)
4. s33488 (CCACCTAGCTTGTAACGAA; chemistry not given here)
5. s5570 (sense TGAACAAGATGGTATCAAA; chemistry not given here)

Solution:
1: 0.77; 2: -0.43; 3: 1.53; 4: 1.58; 5: -0.08

* * *

Exercise: state measured Score_si2 for each of the substances provided.
- Tested on: CHIKV
- Format: cell-based, chikungunya virus
One number for each entry.

Here is how some substances turned out for Score_si2.
substance="s34427 (GGTCAGAGACCATCCAGAA; chemistry not given here)" measured_attribute=Score_si2 test_value=1.71
substance="s29017 (GTCAGTACTTTATCTCGTT; chemistry not given here)" measured_attribute=Score_si2 test_value=1.25
substance="Hs_KAZALD1_1 (sense CCGGAGGAGCTGCTTTCTGAA; chemistry not given here)" measured_attribute=Score_si2 test_value=1.12
substance="Hs_ZZZ3_2 (TAGGAATTTACCTGAATATAA; chemistry not given here) [reference compound]" measured_attribute=Score_si2 test_value=-2.58
substance="s35016 (CCTGATCCACGAGAAGTCA; chemistry not given here)" measured_attribute=Score_si2 test_value=1.63

For every listed record, write down its Score_si2.
1. Hs_MGC11102_1 (TAGCGTGGCTTTAAACATATA; chemistry not given here)
2. s5571 (sense GCAGGACGAGGGTAAAGAA; chemistry not given here)
3. s18239 (CGGTGACTCTTTATGCACA; chemistry not given here)
4. s38243 (AGAAATTCCGGAACCAATT; chemistry not given here)

Solution:
[1.11, 0.56, 1.37, 0.8]

* * *

- Tested on: CHIKV
- Type: cell-based, chikungunya virus
Tag: T if measured Score_si1 is not below 1, F if it is.

Answered cases to consult:
substance="Hs_SIMP_2 (sense CTGGCTTGTTAGGATATATAA; chemistry not given here) [reference compound]" target=CHIKV answer_label=F
substance="Hs_FLT4_4 (sense CGCGCTGATGTCGGAGCTCAA; chemistry not given here)" target=CHIKV answer_label=T
substance="Hs_XRN1_2 (AAGGAAATAGATAAACTGTAA; chemistry not given here)" target=CHIKV answer_label=T
substance="Hs_FLJ11752_1 (sense CTGGATATTACTAGAGTTGTA; chemistry not given here)" target=CHIKV answer_label=T
substance="Hs_UQCRFS1_1 (CAGCATGATCTAGATCGAGTA; chemistry not given here)" target=CHIKV answer_label=T
substance="Hs_SDFR1_8 (sense CAGGTATATACAGCATATAAA; chemistry not given here) [reference compound]" target=CHIKV answer_label=F
substance="Hs_PD2_2 (CACCATTATTGTGAGCAGCAA; chemistry not given here)" target=CHIKV answer_label=T
substance="Hs_NDUFA7_1 (CAGGGAGAATGTGACCTAATT; chemistry not given here) [reference compound]" target=CHIKV answer_label=F

Please examine the following record next.
Exercise: Can Hs_MGC11102_2 (CAGGTGGTTTGTTCTTTCTTA; chemistry not given here) be said to have Score_si1 at or above 1?
Solution: T
